Reference for the values: the supplement of paper PMC12042874

Measurement description: amyloid nucleation score (Sup35N fusion, yeast selection) (log enrichment); library NNK3; higher = more nucleation; inactive = no reads after selection;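 further: zero at mode of non-aggregating sequences after 7 days selection at 30°C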
Observation type: amyloid nucleation score

Examples with answers:
{"columns": ["Substance", "amyloid nucleation score"],
 "data": [
  ["NSNFFL", "inactive"],
  ["VEMGDSVRSRGYSISVFLRK", "inactive"],
  ["STGWSMLVFRTRCYLFSFSG", "inactive"],
  ["PQLLVSYYL", "inactive"],
  ["SLMYKCLINSILY", 1.97]
]}

Bench note: what amyloid nucleation score did WTVGCREWLSLCCSAKDTDA show?
inactive

Note, next up: CLSGRCRASMLPLGRVSKCD
inactive

Similarly, DTFACCPRWNLCGENTLPYI ?
2.33

Further, for VWILCNRPKRRMIYLTQCRM ?
inactive

====

Measurement description: amyloid nucleation score (Sup35N fusion, yeast selection) (log enrichment); library NNK2; higher = more nucleation; inactive = no reads after selection
Tag: criterion met if measured amyloid nucleation score is not below 1, criterion not met if it is.

{"columns": ["Primary sequence", "Group label"],
 "data": [
  ["NDKTYLPGRHSYGSCYVIVW", "criterion not met"],
  ["SLILDNVDEGQSFSMGVCLG", "criterion not met"],
  ["LRSACCLIRSLNTAVCGWTK", "criterion met"],
  ["EGIVAMAERYYSSNIRAVTW", "criterion not met"]
]}

State whether the measured amyloid nucleation score reaches 1, counting equality as reaching it, for INGWEPSIIDVIYNAHQIGP
criterion not met

Cool, now LCNSTNSESIIVLDITALTH
criterion not met

What about FLLTKSRCLEVFA ?
criterion met

Here is the next sequence: RPGHYRTWYFSGFYSSPCQT
criterion met

Repeat with LCNSEIFNMANISMS
criterion not met

Try VEHARGDRCCRQDYGVQQYK next.
criterion met

Would you kindly repeat that for DVAYSYRHECIADKLLRVEH ?
criterion not met

How about WFPLGQHEKAEILSLMIVDR ?
criterion not met

What would you report for FSYMYPRGLLVINMSGVQVN ?
criterion met

====

Measurement description: amyloid nucleation score (Sup35N fusion, yeast selection) (log enrichment); library NNK2; higher = more nucleation; inactive = no reads after selection
// label = Yes if amyloid nucleation score is not less than -0.6, otherwise No

Field: example entries. Status: answers known.
{"columns": ["Substance", "Group label"],
 "data": [
  ["DYYYIPSSIVSTIFKEFSPL", "No"],
  ["GEKTVLVYMVG", "Yes"],
  ["FTSFCMMKGPGLY", "No"],
  ["KATRTFY", "Yes"],
  ["YHYANDMFFN", "No"],
  ["YLKFIKANVRTSGKKLA", "Yes"],
  ["VIVKAVVDIIGSN", "Yes"],
  ["RIIYEAC", "No"],
  ["NLSFKSMYLVERWICHRKGR", "Yes"],
  ["HRLVGTC", "Yes"]
]}

Quick check: does FYCLCTTDGICLEDLL have amyloid nucleation score greater than or equal to -0.6?
Yes

Then this substance: FNDLMYVNYLLCMVH
Yes

Now the same for ARSMVMHYFWGSTLAPESKF
No

Now the same for TSVIIIGYCI
Yes
